Recorded values, source patent US20160185837A1.

Molecular target: rat GIP receptor (rGIPr) (Rattus norvegicus, UniProt P43219)
Construct: expressed in transfected cells; host or cells: HEK293s or CHO cells
Sequence (P43219 19-455): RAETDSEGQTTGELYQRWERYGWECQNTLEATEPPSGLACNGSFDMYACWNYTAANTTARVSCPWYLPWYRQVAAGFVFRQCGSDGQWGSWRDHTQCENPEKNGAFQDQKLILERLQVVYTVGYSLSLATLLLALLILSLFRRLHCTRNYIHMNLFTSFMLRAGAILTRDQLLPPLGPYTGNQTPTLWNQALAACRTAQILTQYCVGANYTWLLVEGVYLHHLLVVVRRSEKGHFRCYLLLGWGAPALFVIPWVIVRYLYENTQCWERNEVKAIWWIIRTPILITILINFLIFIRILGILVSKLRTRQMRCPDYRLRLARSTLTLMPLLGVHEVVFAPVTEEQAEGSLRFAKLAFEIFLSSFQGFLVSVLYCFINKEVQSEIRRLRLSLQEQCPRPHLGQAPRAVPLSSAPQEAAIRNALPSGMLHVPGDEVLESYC
Test: BSA-cAMP assay, cells expressing rat GIP receptor
Format: cell-based
Conditions: Batch 1; BSA-cAMP assay; read-out: rGIPr cAMP activity EC50
Readout Name: pEC50
Units for pEC50: none; it is -log10 of a concentration expressed in mol/L.

IN: Under rat GIP receptor (rGIPr) (Rattus norvegicus, UniProt P43219): pEC50 value of IP385 (YSEGTFTSDYSIYLDRQAIDEFIAWLLKGGGGGGGSGGGGSGGGGSGGGGSACPPC) ?
OUT: 8.96

IN: Under rat GIP receptor (rGIPr) (Rattus norvegicus, UniProt P43219): pEC50 value of IP386 (YSEGTFISDYSIAMDKIHQQDFVNWLLAQKGGGGGSGGGGSGGGGSGGGGSACPPC) ?
OUT: 11.07

Next:
IN: Under rat GIP receptor (rGIPr) (Rattus norvegicus, UniProt P43219): pEC50 value of IP359: Fc fusion, IgG1-TM, SEQ ID NO:366; agonist peptide YSEGTFTSDYSKLLEEEAVRLFIEHLLAGG (YSEGTFTSDYSKLLEEEAVRLFIEHLLAGGGGGGSGGGGSGGGGSGGGGSATHTCPPC) ?
OUT: 10.41

###

Reported values of EC50 for individual entries
Target: mouse GIP receptor (mGIPr) (Mus musculus, UniProt Q0P543)
Construct: expressed in transfected cells; host or cells: HEK293s or CHO cells
Sequence (Q0P543 19-460): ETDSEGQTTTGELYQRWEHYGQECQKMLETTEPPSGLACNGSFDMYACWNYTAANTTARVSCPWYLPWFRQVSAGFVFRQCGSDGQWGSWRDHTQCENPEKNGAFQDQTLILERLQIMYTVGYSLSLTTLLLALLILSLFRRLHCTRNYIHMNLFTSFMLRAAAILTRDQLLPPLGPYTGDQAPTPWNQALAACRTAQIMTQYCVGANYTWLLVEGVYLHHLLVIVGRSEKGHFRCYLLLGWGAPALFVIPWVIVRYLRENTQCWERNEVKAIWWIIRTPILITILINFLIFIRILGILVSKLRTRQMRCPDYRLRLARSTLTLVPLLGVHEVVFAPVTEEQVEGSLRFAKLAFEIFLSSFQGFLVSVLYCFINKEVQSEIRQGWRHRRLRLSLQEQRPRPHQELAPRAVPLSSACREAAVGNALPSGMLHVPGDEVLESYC
Assay: BSA-cAMP assay, cells expressing mouse GIP receptor
Format: cell-based
Conditions: Batch 1; BSA-cAMP assay; read-out: mGIPr cAMP activity EC50
The figure you give is taken to be in nM; do not add the unit.

Take a look at these entries with their results.
IN: Quick check: EC50 of IP412: Fc fusion, IgG1-TM, SEQ ID NO:387; agonist peptide YSEGTFTSDYSKLLEEEANRLFIEWLLAGG (YSEGTFTSDYSKLLEEEANRLFIEWLLAGGGGGGSGGGGSGGGGSGGGGSATHTCPPC) ?
OUT: 0.4

IN: Quick check: EC50 of IP335 (YSEGTFISDYSIAMDKIHQQDFVNWLLAQKGGGGGSGGGGSGGGGSGGGGSA) ?
OUT: 0.02

IN: Quick check: EC50 of IP302 (YSEGTFISDYSIALAAAAQQDFVNWLLAGGGGGGGSGGGGSGGGGSGGGGSATHTCPPC) ?
OUT: 0.083

IN: Quick check: EC50 of IP308 (YSEGTFISDYSIALAAAAAKDFVNWLLAGGGGGGGSGGGGSGGGGSGGGGSATHTCPPC) ?
OUT: 0.17

IN: Quick check: EC50 of IP318: Fc fusion, IgG1-TM(ΔK), SEQ ID NO:432; agonist peptide YSEGTFISDYSIAMDEEAVRDFVEWLKAGG (YSEGTFISDYSIAMDEEAVRDFVEWLKAGGGGGGGSGGGGSGGGGSGGGGSATHTCPPC) ?
OUT: 35

Next:
IN: Quick check: EC50 of IP396 (YSEGTFTSDYSKLLERQAIDEFIAWLLKGGGGGGGSGGGGSGGGGSGGGGSACPPC) ?
OUT: 0.28

IN: Quick check: EC50 of IP381: Fc fusion, IgG1-fusion, SEQ ID NO:377; agonist peptide YSEGTFTSDYSKLLEEEAVRLFIEYLLAGG (YSEGTFTSDYSKLLEEEAVRLFIEYLLAGGGGGGSGGGGSGGGGSGGGGSATHTCPPC) ?
OUT: 5.4
